Consider the following compounds; for each one, report its T/C.
tested on: L1210 leukemia ip in BDF1 mice, survival T/C; experiment: NCI In Vivo Anticancer Drug Screen. Data for tumor model L1210 Leukemia (intraperitoneal) in B6D2F1 (BDF1) mice; settings: endpoint: mean survival time; dose: 25.0 mg/kg/injection; schedule: Q04DX003 (ip); vehicle: saline with Tween-80; higher = longer survival
Toxic doses and inconclusive results are not listed.

Can you share its T/C? I mean this compound: `Cc1ccc(NC(=O)c2cccc(C(=O)Nc3ccc(C)cc3C)c2)c(C)c1`
98 % of control

What about this compound? CCNC(C)CC(C)C (centres undefined)
95 % of control

What about this compound? `CCOC(=O)NC(C)(C)Cc1ccccc1`
101 % of control

What about this compound? O=[As](O)(c1cccc(Cl)c1)C1CCCCC1O (centres undefined)
91 % of control

====

tested on: L1210 leukemia ip in BDF1 mice, survival T/C; assay: NCI In Vivo Anticancer Drug Screen. Data for tumor model L1210 Leukemia (intraperitoneal) in B6D2F1 (BDF1) mice; details: endpoint: mean survival time; dose: 200.0 mg/kg/injection; schedule: Q04DX003 (ip); vehicle: Klucel (hydroxypropylcellulose) (HPC); higher = longer survival
Toxic doses and inconclusive results are not listed.
reported metric: T/C

Can you share its T/C? I mean this compound: `Clc1ccc2nsnc2c1Cl`
98 % of control

What about this compound? `CCCCCCCCCCCCCCCCCOc1ccc(I)cc1`
91 % of control

What about this compound? `Cc1cc(Br)c(C)cc1Br`
98 % of control

====

Consider the following compounds; for each one, report its T/C.
tested on: L1210 leukemia ip in BDF1 mice, survival T/C; experiment: NCI In Vivo Anticancer Drug Screen. Data for tumor model L1210 Leukemia (intraperitoneal) in B6D2F1 (BDF1) mice; details: endpoint: mean survival time; dose: 400.0 mg/kg/injection; schedule: Q04DX003 (sc); vehicle: olive oil, sesame oil, peanut oil; higher = longer survival
Inconclusive results and toxic doses are left out.

Can you share its T/C? I mean this compound: O=C(Nc1cccc(C(F)(F)F)c1)c1cc(C(O)C2CCCCN2)c2cccc(C(F)(F)F)c2n1 (stereo not given)
97 % of control

What about this compound? `CCCC(=O)c1cc(C)sc1C`
100 % of control

What about this compound? `CCOC(=O)c1cc([N+](=O)[O-])c(C)s1`
106 % of control

What about this compound? `CCN(CC)CCOc1ccc(/C=C(/C(=O)c2ccccc2)c2ccccc2)cc1`
101 % of control

What about this compound? `CCCCCCCCCCCCOCCCCCCCCCCCC`
104 % of control

====

test system: L1210 leukemia ip in BDF1 mice, survival T/C; experiment: NCI In Vivo Anticancer Drug Screen. Data for tumor model L1210 Leukemia (intraperitoneal) in B6D2F1 (BDF1) mice; settings: endpoint: mean survival time; dose: 12.5 mg/kg/injection; schedule: Q04DX003 (ip); vehicle: saline; higher = longer survival
Toxic doses and inconclusive results are not listed.
Consider the following compounds; for each one, report its T/C.

Can you share its T/C? I mean this compound: CCN(CC)CCCOC(=O)C(CCC(C)C)c1ccccc1C (configuration not stated)
102 % of control

What about this compound? `[Cl][Pd]([Cl])([Cl])[Cl]`
95 % of control

What about this compound? CCC(C)C(CN)(CCN(C)C)Cc1cccc2ccccc12 (configuration not stated)
93 % of control

What about this compound? `CC(=O)OCCN1CCN(CCCN2c3ccccc3Sc3ccc(C(F)(F)F)cc32)CC1`
106 % of control

What about this compound? `CC(C)(C)NCCC(=O)c1ccccc1`
98 % of control

What about this compound? `CC1(C)CC(N=Cc2ccccc2O)CC(C)(C)N1O.CC1(C)CC(N=Cc2ccccc2O)CC(C)(C)N1O.[Cu]`
89 % of control

What about this compound? `C1CCc2nnnn2CC1`
103 % of control
